We begin with a simple list: items and their reported pIC50.
STUDY TARGET: TRKA (Homo sapiens)
Sequence (P04629 510-781 limits assumed): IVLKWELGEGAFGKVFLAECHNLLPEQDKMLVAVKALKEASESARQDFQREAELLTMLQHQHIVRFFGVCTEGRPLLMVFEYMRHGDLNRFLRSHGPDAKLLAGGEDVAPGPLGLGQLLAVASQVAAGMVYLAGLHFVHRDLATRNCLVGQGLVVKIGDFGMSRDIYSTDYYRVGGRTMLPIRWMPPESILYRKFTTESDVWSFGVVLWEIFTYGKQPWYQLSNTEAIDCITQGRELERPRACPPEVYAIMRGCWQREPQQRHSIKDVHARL
EXPERIMENT: TRKA kinase assay
Assay type: biochemical
Parameters: 6×His- or GST-tagged kinase domain fragments of the corresponding RTKs expressed in baculovirus system; host or cells: baculovirus system
STUDY CONDITIONS: Table 1; read-out: TRKA IC50
pIC50: −log10 of the molar value.

Take a look at these entries with their results.
{"MOLECULE": "Cc1ccc(F)cc1C[C@H](C)Nc1cc[nH]c(=O)c1-c1nc2cc3c(cc2[nH]1)C(=O)N(CCN1CCCC1)C3 [drawing 303]", "STUDY TARGET": "TRKA (Homo sapiens)", "RESULT": "> 8.00"}
{"MOLECULE": "Cc1ccc(F)cc1C[C@H](C)Nc1cc[nH]c(=O)c1-c1nc2cc3c(cc2[nH]1)CN(CCN(C)C)C3=O [drawing 316]", "STUDY TARGET": "TRKA (Homo sapiens)", "RESULT": "> 8.00"}
{"MOLECULE": "O=C1c2cc3nc(-c4c(NC[C@@H](O)c5cccc(Cl)c5)cc[nH]c4=O)[nH]c3cc2C(=O)N1CCN1CCCC1", "STUDY TARGET": "TRKA (Homo sapiens)", "RESULT": "7.00 to 8.00"}
{"MOLECULE": "Cc1cccc(C)c1C[C@H](C)Nc1cc[nH]c(=O)c1-c1nc2cc3c(cc2[nH]1)C(=O)N(CCN1CCCC1)C3", "STUDY TARGET": "TRKA (Homo sapiens)", "RESULT": "> 8.00"}
{"MOLECULE": "O=C1NC(=O)c2cc3[nH]c(-c4c(NC[C@@H](O)c5cccc(Cl)c5)cc[nH]c4=O)nc3cc21", "STUDY TARGET": "TRKA (Homo sapiens)", "RESULT": "6.60 to 7.00"}

// switching to the query molecule
Request: Returns the measured pIC50 for the input molecule. Input: Cc1c(F)cccc1C[C@H](C)Nc1cc[nH]c(=O)c1-c1nc2cc3c(cc2[nH]1)C(=O)N(CCN1CCCC1)C3
Response: > 8.00
